Quick list: (%) inhibition of MIF nuclease activity per entry.
Target system: MIF (Homo sapiens)
Test summary: Nuclease assay of Example 3 (MIF inhibitory activity, Table 4)
Assay type: biochemical
Design: concentration or dose not given beside the values
Test parameters: nuclease assay of Example 3
Metric: (%) inhibition of MIF nuclease activity

{"Compound": "COc1ccc(CC[C@H]2OC(=O)[C@@H]3CCCCN3C(=O)C(=O)C(C)(C)COC(=O)C=CCCN(C)C(=O)[C@H](Cc3ccc(F)cc3)NC(=O)[C@H](Cc3ccccc3)N(C)C(=O)[C@@H](C)NC(=O)CN(C)C(=O)COc3cccc2c3)cc1OC [compound 70]", "Experimental value": "25.2%"}
{"Compound": "COc1ccc(CC[C@H]2OC(=O)[C@@H]3CCCCN3C(=O)C(=O)C(C)(C)COC(=O)C=CCCN(C)C(=O)[C@H](C(C)C)NC(=O)[C@H](COC(C)(C)C)N(C)C(=O)[C@H](Cc3ccc4ccccc4c3)NC(=O)[C@H](C)N(C)C(=O)COc3cccc2c3)cc1OC [compound 29]", "Experimental value": "12.4%"}

---

Target system: MIF (Homo sapiens, UniProt P14174)
Sequence (P14174 1-115): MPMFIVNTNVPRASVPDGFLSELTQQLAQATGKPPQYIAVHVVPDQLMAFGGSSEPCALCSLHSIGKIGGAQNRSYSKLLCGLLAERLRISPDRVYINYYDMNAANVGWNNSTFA
Test summary: Nuclease assay of Example 3 (MIF inhibitory activity, Table 4)
Type: biochemical
Test parameters: nuclease assay of Example 3
Quick list: (%) inhibition of MIF nuclease activity per entry.

{"Compound": "COc1ccc(CC[C@H]2OC(=O)[C@@H]3CCCCN3C(=O)C(=O)C(C)(C)COC(=O)C=CCCN(C)C(=O)[C@@H]3CCCN3C(=O)[C@H](COC(C)(C)C)N(C)C(=O)C(c3ccccc3)NC(=O)[C@H](C)N(C)C(=O)COc3cccc2c3)cc1OC (stereo partly shown) [compound 56]", "Uom": "%", "(%) inhibition of MIF nuclease activity": 70.8}
{"Compound": "CCC[C@@H]1NC(=O)[C@H](C(C)C)N(C)C(=O)[C@@H](Cc2ccccc2)NC(=O)[C@H](CC(C)C)N(C)C(=O)CCC(=O)Nc2cccc(c2)[C@@H](CCc2ccc(OC)c(OC)c2)OC(=O)[C@@H]2CCCCN2C(=O)C(=O)C(C)(C)COC(=O)C=CCCN(C)C1=O", "Uom": "%", "(%) inhibition of MIF nuclease activity": 6.7}
{"Compound": "COc1ccc(CC[C@H]2OC(=O)[C@@H]3CCCCN3C(=O)C(=O)C(C)(C)COC(=O)C=CCCN(C)C(=O)[C@@H]3CCCN3C(=O)[C@H](COC(C)(C)C)N(C)C(=O)C(c3ccccc3)NC(=O)[C@H](C)N(C)C(=O)COc3cncc2c3)cc1OC (stereo partly shown)", "Uom": "%", "(%) inhibition of MIF nuclease activity": 6.7}
{"Compound": "COc1ccc(CC[C@H]2OC(=O)[C@@H]3CCCCN3C(=O)C(=O)C(C)(C)COC(=O)C=CCCN(C)C(=O)[C@H](C)NC(=O)[C@H](COC(C)(C)C)N(C)C(=O)[C@H](Cc3ccc4ccccc4c3)NC(=O)[C@H](C)N(C)C(=O)COc3cccc2c3)cc1OC", "Uom": "%", "(%) inhibition of MIF nuclease activity": 63.7}

---

Target system: MIF (Homo sapiens, UniProt P14174)
Test summary: Nuclease assay of Example 3 (MIF inhibitory activity, Table 4)
Format: biochemical
Design: concentration or dose not given beside the values
Test parameters: nuclease assay of Example 3
Metric: (%) inhibition of MIF nuclease activity

{"Compound": "COc1ccc(CC[C@H]2OC(=O)[C@@H]3CCCCN3C(=O)C(=O)C(C)(C)COC(=O)C=CCCN(C)C(=O)[C@H](CC(C)C)NC(=O)[C@H](COC(C)(C)C)N(C)C(=O)[C@@H](CC(C)C)NC(=O)CN(C)C(=O)COc3cccc2c3)cc1OC", "Uom": "%", "Experimental value": 30.8}
{"Compound": "COc1ccc(CC[C@H]2OC(=O)[C@@H]3CCCCN3C(=O)C(=O)C(C)(C)COC(=O)C=CCCN(C)C(=O)[C@H](Cc3ccc4ccccc4c3)NC(=O)[C@H](COC(C)(C)C)N(C)C(=O)[C@@H](CC(C)C)NC(=O)CN(C)C(=O)COc3cccc2c3)cc1OC", "Uom": "%", "Experimental value": 21.9}
{"Compound": "COc1ccc(CC[C@H]2OC(=O)[C@@H]3CCCCN3C(=O)C(=O)C(C)(C)COC(=O)C=CCCN(C)C(=O)C(c3ccccc3)NC(=O)[C@H](COC(C)(C)C)N(C)C(=O)[C@H](Cc3ccc4ccccc4c3)NC(=O)[C@H](C)N(C)C(=O)COc3cccc2c3)cc1OC (stereo partly shown)", "Uom": "%", "Experimental value": 18.6}
{"Compound": "COc1ccc(CC[C@H]2OC(=O)[C@@H]3CCCCN3C(=O)C(=O)C(C)(C)COC(=O)C=CCCN(C)C(=O)[C@@H](Cc3ccccc3)NC(=O)[C@H](COC(C)(C)C)N(C)C(=O)C(c3ccccc3)NC(=O)[C@H](C)N(C)C(=O)COc3cccc2c3)cc1OC (stereo partly shown)", "Uom": "%", "Experimental value": 15.9}

---

Target system: MIF (Homo sapiens)
Sequence (P14174 1-115): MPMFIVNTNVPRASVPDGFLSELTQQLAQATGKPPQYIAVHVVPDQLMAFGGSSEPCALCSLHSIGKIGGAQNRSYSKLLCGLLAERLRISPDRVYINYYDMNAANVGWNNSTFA
Test summary: Nuclease assay of Example 3 (MIF inhibitory activity, Table 4)
Assay type: biochemical
Set-up: concentration or dose not given beside the values
Test parameters: nuclease assay of Example 3

{"Smiles": "COc1ccc(CC[C@H]2OC(=O)[C@@H]3CCCCN3C(=O)C(=O)C(C)(C)COC(=O)C=CCCN(C)C(=O)[C@@H]3CCCN3C(=O)[C@H](COC(C)(C)C)N(C)C(=O)[C@H](COC(C)(C)C)NC(=O)[C@H](C)N(C)C(=O)COc3cccc2c3)cc1OC", "(%) inhibition of MIF nuclease activity": "0.0%"}
{"Smiles": "COc1ccc(CC[C@H]2OC(=O)[C@@H]3CCCCN3C(=O)C(=O)C(C)(C)COC(=O)C=CCCN(C)C(=O)[C@H](Cc3ccccc3)NC(=O)[C@H](C(C)C)N(C)C(=O)[C@@H](Cc3ccccc3)NC(=O)[C@H](CC(C)C)N(C)C(=O)CCC(=O)Nc3cccc2c3)cc1OC", "(%) inhibition of MIF nuclease activity": "12.0%"}
{"Smiles": "COc1ccc(CC[C@H]2OC(=O)[C@@H]3CCCCN3C(=O)C(=O)C(C)(C)COC(=O)C=CCCN(C)C(=O)[C@H](C)NC(=O)[C@H](COC(C)(C)C)N(C)C(=O)[C@@H](CC(C)C)NC(=O)CN(C)C(=O)COc3cccc2c3)cc1OC", "(%) inhibition of MIF nuclease activity": "15.3%"}

---

Target system: MIF (Homo sapiens, UniProt P14174)
Test summary: Nuclease assay of Example 3 (MIF inhibitory activity, Table 4)
Type: biochemical
Set-up: concentration or dose not given beside the values
Test parameters: nuclease assay of Example 3
Quick list: (%) inhibition of MIF nuclease activity per entry.
Metric: (%) inhibition of MIF nuclease activity

{"Molecule": "COc1ccc(CC[C@H]2OC(=O)[C@@H]3CCCCN3C(=O)C(=O)C(C)(C)COC(=O)C=CCCN(C)C(=O)[C@@H](CC(C)C)NC(=O)[C@H](COC(C)(C)C)N(C)C(=O)C(c3ccccc3)NC(=O)CN(C)C(=O)COc3cccc2c3)cc1OC (stereo partly shown)", "Metric": "(%) inhibition of MIF nuclease activity", "Experimental value": 18.0}
{"Molecule": "COc1ccc(CC[C@H]2OC(=O)[C@@H]3CN(C)CCN3C(=O)C(=O)C(C)(C)COC(=O)C=CCCN(C)C(=O)[C@@H]3CCCN3C(=O)[C@H](COC(C)(C)C)N(C)C(=O)C(c3ccccc3)NC(=O)[C@H](C)N(C)C(=O)COc3cccc2c3)cc1OC (stereo partly shown)", "Metric": "(%) inhibition of MIF nuclease activity", "Experimental value": 9.0}
{"Molecule": "COc1ccc(CC[C@H]2OC(=O)[C@@H]3CCCCN3C(=O)C(=O)C(C)(C)COC(=O)C=CCCN(C)C(=O)[C@@H]3CCCN3C(=O)[C@H](COC(C)(C)C)N(C)C(=O)C(c3ccccc3)NC(=O)[C@H](C)N(C)C(=O)COc3cccc2c3)cc1 (stereo partly shown)", "Metric": "(%) inhibition of MIF nuclease activity", "Experimental value": 6.8}
{"Molecule": "COc1ccc(CC[C@H]2OC(=O)[C@@H]3CCCCN3C(=O)C(=O)C(C)(C)COC(=O)C=CCCN(C)C(=O)[C@H](c3ccccc3)NC(=O)[C@H](Cc3ccccc3)N(C)C(=O)[C@@H](C)NC(=O)CN(C)C(=O)COc3cccc2c3)cc1OC", "Metric": "(%) inhibition of MIF nuclease activity", "Experimental value": 34.9}
